Hello, the source for this data is ChEMBL document CHEMBL4346653, in case you need it.

Target: Adenosine receptor A2a (Homo sapiens)
Assay: Displacement of [3H]MSX-2 from recombinant human A2A adenosine receptor expressed in CHO cell membranes measured after 30 mins in presence of adenosine deaminase by liquid scintillation counting method
experimentalReadout: Ki (nM)

Study these solved cases before continuing.
In [3]: df
Out[3]:
                                  structure                          subjectoftest  observedresult
0  CCCn1c(=O)[nH]c2nc(-c3ccc(S(=O)(=O)N(C)CCc4ccccc4)cc3)[nH]c2c1=O  Adenosine receptor A2a (Homo sapiens)             357
1  CCCn1c(=O)[nH]c2nc(-c3ccc(S(=O)(=O)N4CCN(C(=O)c5ccccc5)CC4)cc3)[nH]c2c1=O  Adenosine receptor A2a (Homo sapiens)             143
2  CCCn1c(=O)[nH]c2nc(-c3ccc(S(=O)(=O)N4CCN(Cc5ccc(OC)c(F)c5)CC4)cc3)[nH]c2c1=O  Adenosine receptor A2a (Homo sapiens)             245
3  CCCn1c(=O)c2[nH]c(-c3ccc(S(=O)(=O)N4CCN(c5ccc(Cl)cc5)CC4)cc3)nc2n(CC)c1=O  Adenosine receptor A2a (Homo sapiens)             322

[a] CCCn1c(=O)[nH]c2nc(-c3ccc(S(=O)(=O)N4CCN(Cc5ccc(OCCOCCOC)cc5)CC4)cc3)[nH]c2c1=O
[b] CCCn1c(=O)[nH]c2nc(-c3ccc(S(=O)(=O)N4CCN(c5ccccc5)CC4)cc3)[nH]c2c1=O
[c] CCCn1c(=O)[nH]c2nc(-c3ccc(S(=O)(=O)N4CCN(c5ccc(Cl)c(O)c5)CC4)cc3)[nH]c2c1=O
Please give the order of these compounds when sorted by Ki, largest value leading. Output spec: labels arranged per the requested ranking.
a, b, c
(a: 314 nM, b: 122 nM, c: 40.7 nM)

---

Species: Homo sapiens
Experiment: Selectivity index, ratio of Ki for displacement of [3H]CCPA from recombinant human A1 adenosine receptor expressed in CHO cell membranes to Ki for displacement of [3H]PSB-603 from recombinant human A2B adenosine receptor expressed in CHO cell membranes
Known Ratio Ki of a selection of compounds

>>> print(df.to_string())
                                  structure  observedresult
0  CCCn1c(=O)[nH]c2nc(-c3ccc(S(=O)(=O)N4CCN(c5ccc(C)cc5)CC4)cc3)[nH]c2c1=O          > 1420
1  CCCn1c(=O)[nH]c2nc(-c3ccc(S(=O)(=O)N4CCN(c5ccccc5F)CC4)cc3)[nH]c2c1=O           > 310
2  CCCn1c(=O)[nH]c2nc(-c3ccc(S(=O)(=O)N4CCN(Cc5cccc(Br)c5)CC4)cc3)[nH]c2c1=O             620

What value of Ratio Ki has been reported for the following compound? CCCn1c(=O)[nH]c2nc(-c3ccc(S(=O)(=O)N4CCN(c5ccc(OC)c(Cl)c5)CC4)cc3)[nH]c2c1=O
> 2840

Given the compound CCCn1c(=O)c2[nH]c(-c3ccc(S(=O)(=O)N4CCN(c5ccc(Cl)cc5)CC4)cc3)nc2n(C)c1=O , what is its reported Ratio Ki?
> 520

Item under review: CCCn1c(=O)[nH]c2nc(-c3ccc(S(=O)(=O)N4CCN(c5ccc(Cl)cc5F)CC4)cc3)[nH]c2c1=O . Reported Ratio Ki?
> 500

---

Biological target: Adenosine receptor A2b (Homo sapiens, UniProt P29275)
Sequence (P29275 whole entry): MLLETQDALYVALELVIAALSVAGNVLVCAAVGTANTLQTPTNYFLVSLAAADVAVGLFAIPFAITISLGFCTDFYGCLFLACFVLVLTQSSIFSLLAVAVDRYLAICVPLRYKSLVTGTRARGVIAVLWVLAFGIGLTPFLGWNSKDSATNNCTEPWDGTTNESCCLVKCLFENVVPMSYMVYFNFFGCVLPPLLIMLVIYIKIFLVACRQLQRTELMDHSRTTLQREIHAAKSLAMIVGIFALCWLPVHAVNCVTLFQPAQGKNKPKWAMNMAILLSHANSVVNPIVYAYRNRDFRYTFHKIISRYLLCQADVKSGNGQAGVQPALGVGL
Assay: Displacement of [3H]DPCPX from recombinant human A2B adenosine receptor expressed in HEK293 cell membranes measured after 60 mins by topcount scintillation counting method
experimentalReadout: pKi
// pKi: -log10(molar conc.)

Looking for the measured pKi of O=C(Nc1nc2nn(CCCc3ccccc3)cc2c2nc(-c3ccco3)nn12)c1cccc2ccccc12 , can you help?
7.70

---

Molecular target: Adenosine receptor A2a (Homo sapiens, UniProt P29274)
Sequence (P29274 whole entry): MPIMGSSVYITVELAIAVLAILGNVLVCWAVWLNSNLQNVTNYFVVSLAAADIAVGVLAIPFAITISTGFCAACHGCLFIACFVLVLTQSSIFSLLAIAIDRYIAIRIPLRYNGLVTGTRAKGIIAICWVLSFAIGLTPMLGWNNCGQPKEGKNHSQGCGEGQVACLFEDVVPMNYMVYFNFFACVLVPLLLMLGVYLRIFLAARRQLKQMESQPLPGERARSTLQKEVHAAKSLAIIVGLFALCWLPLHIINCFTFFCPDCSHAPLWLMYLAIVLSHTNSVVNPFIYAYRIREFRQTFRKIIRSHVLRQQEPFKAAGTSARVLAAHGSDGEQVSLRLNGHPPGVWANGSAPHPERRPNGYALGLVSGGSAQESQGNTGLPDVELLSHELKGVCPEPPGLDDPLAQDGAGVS
Experiment: Displacement of [3H]MSX-2 from recombinant human A2A adenosine receptor expressed in CHO cell membranes measured after 30 mins in presence of adenosine deaminase by liquid scintillation counting method
experimentalReadout: Ki (µM)

                                   molecule                             subjectoftest  experimentalreadout  observedresult
0  CCCn1c(=O)[nH]c2nc(-c3ccc(S(=O)(=O)N4CCN(Cc5cccc(OC)c5)CC4)cc3)[nH]c2c1=O  Adenosine receptor A2a (Homo sapiens, UniProt P29274)                   Ki           0.131
1  CCCn1c(=O)[nH]c2nc(-c3ccc(S(=O)(=O)N4CCN(Cc5ccc(F)c(OC)c5)CC4)cc3)[nH]c2c1=O  Adenosine receptor A2a (Homo sapiens, UniProt P29274)                   Ki           0.135

[P] CCCn1c(=O)[nH]c2nc(-c3ccc(S(=O)(=O)N4CCN(c5cccc(Cl)c5)CC4)cc3)[nH]c2c1=O
[Q] CCCn1c(=O)[nH]c2nc(-c3ccc(S(=O)(=O)N4CCN(c5ccccc5C)CC4)cc3)[nH]c2c1=O
[R] CCCn1c(=O)[nH]c2nc(-c3ccc(S(=O)(=O)N4CCN(Cc5ccc(Br)cc5)CC4)cc3)[nH]c2c1=O
Rank the 3 molecules: largest Ki first, smallest last. Put the labels in the requested order and list them out.
P, Q, R
(P: 1 µM, Q: 0.14 µM, R: 0.0778 µM)

[P] CCCn1c(=O)[nH]c2nc(-c3ccc(S(=O)(=O)N4CCN(Cc5cc(F)cc(OC)c5)CC4)cc3)[nH]c2c1=O
[Q] CCCn1c(=O)[nH]c2nc(-c3ccc(S(=O)(=O)N4CCN(Cc5ccc(Br)c(F)c5)CC4)cc3)[nH]c2c1=O
[R] CCCn1c(=O)[nH]c2nc(-c3ccc(S(=O)(=O)N4CCN(Cc5ccc(C(=O)O)cc5)CC4)cc3)[nH]c2c1=O
Reorder the items by Ki, least to greatest. Give me the labels in the order the question wants.
P, Q, R

[1] CCCn1c(=O)[nH]c2nc(-c3ccc(S(=O)(=O)N4CCN(c5ccc(Cl)c(OC)c5)CC4)cc3)[nH]c2c1=O
[2] CCCn1c(=O)[nH]c2nc(-c3ccc(S(=O)(=O)N4CCN(Cc5ccc(N=[N+]=[N-])cc5)CC4)cc3)[nH]c2c1=O
[3] CCCn1c(=O)[nH]c2nc(-c3ccc(S(=O)(=O)N4CCN(c5ccc(O)c(Cl)c5)CC4)cc3)[nH]c2c1=O
[4] CCCn1c(=O)[nH]c2nc(-c3ccc(S(=O)(=O)N4CCN(c5ccc(I)cc5)CC4)cc3)[nH]c2c1=O
[5] CCCn1c(=O)[nH]c2nc(-c3ccc(S(=O)(=O)N4CCN(C)CC4)cc3)[nH]c2c1=O
Kindly order the items shown according to Ki, from the highest value down. Could you list the labels in the order requested?
4, 2, 5, 3, 1
(4: 2.99 µM, 2: 0.208 µM, 5: 0.14 µM, 3: 0.0938 µM, 1: 0.0353 µM)

---

Target: Adenosine receptor A1 (Mus musculus, UniProt Q60612)
Sequence (Q60612 whole entry): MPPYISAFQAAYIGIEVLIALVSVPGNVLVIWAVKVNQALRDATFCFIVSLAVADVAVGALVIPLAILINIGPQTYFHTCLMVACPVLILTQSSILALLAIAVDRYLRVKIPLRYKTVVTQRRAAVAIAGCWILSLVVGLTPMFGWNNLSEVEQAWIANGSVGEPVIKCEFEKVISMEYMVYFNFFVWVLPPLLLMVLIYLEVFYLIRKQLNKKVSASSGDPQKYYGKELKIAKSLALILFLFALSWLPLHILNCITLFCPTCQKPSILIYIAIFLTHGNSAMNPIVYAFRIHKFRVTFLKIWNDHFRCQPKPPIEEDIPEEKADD
Assay: Displacement of [3H]CCPA from recombinant mouse A1 adenosine receptor expressed in CHO cell membranes measured after 90 mins in presence of adenosine deaminase by liquid scintillation counting method
pKi: −log10 of the molar value.
experimentalReadout: pKi

[P] CCCn1c(=O)c2[nH]c(-c3ccc(S(=O)(=O)N4CCN(c5ccc(Cl)cc5)CC4)cc3)nc2n(C)c1=O
[Q] CCCn1c(=O)[nH]c2nc(-c3ccc(S(=O)(=O)N4CCN(Cc5cccc(Br)c5)CC4)cc3)[nH]c2c1=O
Return label of the item with the larger pKi. Candidates: P , Q . // return label of chosen record
Q

---

Biological target: Adenosine receptor A3 (Mus musculus)
Assay: Displacement of [3H]NECA from recombinant mouse A3 adenosine receptor expressed in CHO cell membranes at 1 uM measured after 180 mins in presence of adenosine deaminase by liquid scintillation counting method relative to control
experimentalReadout: inhibition (%)

Please review the following examples before continuing.
>>> df
                                  structure  experimentalreadout  observedresult
0  CCCn1c(=O)[nH]c2nc(-c3ccc(S(=O)(=O)N4CCN(c5cccc(F)c5)CC4)cc3)[nH]c2c1=O           inhibition              -2
1  CCCn1c(=O)[nH]c2nc(-c3ccc(S(=O)(=O)N4CCN(Cc5cccc(Br)c5)CC4)cc3)[nH]c2c1=O           inhibition               5

[I] CCCn1c(=O)c2[nH]c(-c3ccc(S(=O)(=O)N4CCN(c5ccc(Cl)cc5)CC4)cc3)nc2n(C)c1=O
[II] CCCn1c(=O)[nH]c2nc(-c3ccc(S(=O)(=O)N4CCN(c5ccc(Br)cc5)CC4)cc3)[nH]c2c1=O
Between the entries labelled I and II , which has a larger inhibition value on record? Your answer should be the label attached to the chosen record.
II
(II: 8%, I: -0.833%)
